Each recorded value in this set is attributed to patent US6060481A.

Target protein (sequence): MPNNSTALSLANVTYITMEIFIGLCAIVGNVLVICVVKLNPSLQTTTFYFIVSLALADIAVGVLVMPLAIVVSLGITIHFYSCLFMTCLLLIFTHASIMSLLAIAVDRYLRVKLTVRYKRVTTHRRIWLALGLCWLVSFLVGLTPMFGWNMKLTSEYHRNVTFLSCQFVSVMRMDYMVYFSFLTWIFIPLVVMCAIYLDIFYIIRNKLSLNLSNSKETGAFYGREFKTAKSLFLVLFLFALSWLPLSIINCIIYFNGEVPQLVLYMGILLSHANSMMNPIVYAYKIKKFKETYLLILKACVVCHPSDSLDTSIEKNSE
property: pKd
Value format note: pKd is -log10 of concentration (mol/L); just state the number.

Query block: Consider the molecule CCCn1c(=O)c2[nH]c(-c3ccc(C=CC(=O)O)cc3)nc2n(CCC)c1=O [BWA1433, 1,3-dipropyl-8-(p-acrylic)phenylxanthine] . State its measured pKd.
Result block: 7.52

* * *

property: Kd
Enter the number, and then the unit.

Query block: Fill in: Kd on human A2A adenosine receptor (Homo sapiens), entry CCCn1c(=O)c2[nH]c(-c3ccc(C=CC(=O)O)cc3)nc2n(CCC)c1=O [BWA1433, 1,3-dipropyl-8-(p-acrylic)phenylxanthine]
Sequence (P29274 whole entry): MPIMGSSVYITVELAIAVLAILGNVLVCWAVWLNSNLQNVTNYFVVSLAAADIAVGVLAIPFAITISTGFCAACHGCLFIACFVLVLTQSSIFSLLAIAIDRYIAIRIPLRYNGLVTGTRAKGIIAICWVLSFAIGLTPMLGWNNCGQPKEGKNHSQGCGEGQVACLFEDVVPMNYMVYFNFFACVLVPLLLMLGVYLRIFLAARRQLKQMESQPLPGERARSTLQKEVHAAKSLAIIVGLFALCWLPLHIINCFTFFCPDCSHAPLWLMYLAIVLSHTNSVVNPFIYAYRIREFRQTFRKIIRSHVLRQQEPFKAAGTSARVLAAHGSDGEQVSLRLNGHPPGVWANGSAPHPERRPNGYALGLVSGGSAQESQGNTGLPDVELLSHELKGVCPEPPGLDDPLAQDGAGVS
Result block: 190 nM
